Hey, just so you know, these numbers are from patent US11932673.

# TRF signal listing for each entry below
target: trypsin; test: Fab TRF, 0.6 ug/mL Fab
# answer = number (no unit)

Field: example entries. Status: answers known.
| Binder | Quantity Name | Experimental Value |
| --- | --- | --- |
| KB_C07 (scFv, V domains shown) VH: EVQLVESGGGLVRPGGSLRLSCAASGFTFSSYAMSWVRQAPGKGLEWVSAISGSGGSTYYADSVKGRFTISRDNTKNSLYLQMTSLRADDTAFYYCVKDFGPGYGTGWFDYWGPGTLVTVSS VL: AVNWYQQLPGKAPKLLIYAAVGCPRILMRCKQDSDCLAGCVCGPNGFCGSASGVSDRFSGSKSGTSASLAISGLRSEDEADYYCASWDDSLRGYVFGTGTKVTVLG | TRF signal | 153000 |
| KB_A05 (scFv, V domains shown) VH: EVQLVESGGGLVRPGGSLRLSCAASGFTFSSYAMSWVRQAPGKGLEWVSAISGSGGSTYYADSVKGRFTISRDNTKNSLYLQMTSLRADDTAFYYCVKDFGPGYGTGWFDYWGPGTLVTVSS VL: AVNWYQQLPGKAPKLLIYAADKCPRILMRCKQDSDCLAGCVCGPNGFCGGGSGIPERFSGSKSGTSASLAISGLRSEDEADYYCATWDDNLNGVVFGGGTKLTVLG | TRF signal | 46700 |

Please find the next binder below.
TRF signal in this record for KB_A01 (scFv, V domains shown) VH: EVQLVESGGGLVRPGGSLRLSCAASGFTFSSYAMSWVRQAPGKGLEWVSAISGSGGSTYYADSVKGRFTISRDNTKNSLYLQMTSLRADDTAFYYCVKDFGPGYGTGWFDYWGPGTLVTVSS VL: YLNWYQQKPGKAPKLLIYAAEVCPRILMRCKQDSDCLAGCVCGPNGFCGGTSGVPSRFSGSRSGTEFTLTISSLQPEDFATYYCQKVDDYPLTFGGGTKVEIKR : 2390
